B1: Storkhead-box protein 2, residues 64 to 141; numbered along this chain, Q9P2F5 (parent)
chain: SPISQSQFIPLGEILCLAISAMNSARKPVTQEALMEHLTTCFPGVPTPSQEILRHTLNTLVRERKIYPTPDGYFIVTP

Variants of: B1
Test: abundance fitness (aPCA) (normalised: wild type 0, dead -1); higher = more abundant; growth selection in yeast, the domain comes from the species named
Settings: Homo sapiens
Parameter: abundance fitness. Scope: all listed entries.
Output spec: single numeric token, no unit.

Check out these entries, answers already filled in.
[
  {
    "MUTATIONS": "S1K",
    "abundance fitness": -0.717
  },
  {
    "MUTATIONS": "P46D",
    "abundance fitness": -0.081
  },
  {
    "MUTATIONS": "R26Q",
    "abundance fitness": -0.018
  }
]

Problem: Return abundance fitness (reported value) for this variant: `A21T`
Result: -0.086

Problem: Return the recorded abundance fitness value; entry: `D71I`
Result: -0.313

Problem: Specify reported abundance fitness for the variant shown: `M35A`
Result: 0.02

Problem: Given `S1D` , respond with its abundance fitness.
Result: -0.027

Problem: Hello, please tell me recorded abundance fitness for this one: `T56A`
Result: -0.046
